FYI, the data here is from patent US9730906B2.

assay remarks: Levels of cholesterol, triglycerides and glucose in rats after oral treatment
Type: in vivo, rat
assay context: rats, daily dose of 600 mg/kg oral; untreated controls = 100%
Experimental: FIG. 13. […] Metabolic diseases form a set of pathologies characterised by the accumulation or deficit of certain molecules (cholesterol, triglycerides, glucose, etc.) in the serum or tissues. […] At the end of the treatment (30 days), blood was sampled from control and treated animals (n=6) and the levels of cholesterol, triglycerides and glucose were determined using standard colorimetric methods. […]

[
  {
    "compound": "CCCCCCCC/C=C\\CCCCCCC(OC)C(=O)OC (stereo not drawn) [OMe-MOOD]",
    "% control CHO (cholesterol), % control": 77
  },
  {
    "compound": "CCCCCCCC/C=C\\CCCCCCC(OC)C(=O)OCC (stereo not drawn) [EE-MOOD]",
    "% control CHO (cholesterol), % control": 64
  },
  {
    "compound": "CCCCCCCC/C=C\\CCCCCCC(OC(C)=O)C(=O)[O-].[Na+] (stereo not drawn) [Na-ACOD]",
    "% control CHO (cholesterol), % control": 49
  },
  {
    "compound": "CCCCCCCC/C=C\\CCCCCCC(OP(=O)(OCC)OCC)C(=O)[O-].[Na+] (stereo not drawn) [Na-DEPOD]",
    "% control CHO (cholesterol), % control": 45
  },
  {
    "compound": "CCCCCCCC/C=C\\CCCCCCC(OC)C(=O)O (stereo not drawn) [MOOD, α-Methoxy-cis-Δ9-octadecenoic]",
    "% control CHO (cholesterol), % control": 65
  },
  {
    "compound": "CCCCCCCC/C=C\\CCCCCCC(OP(=O)(OCC)OCC)C(=O)OC (stereo not drawn) [OMe-DEPOD]",
    "% control CHO (cholesterol), % control": 63
  }
]

----------
assay remarks: Levels of cholesterol, triglycerides and glucose in rats after oral treatment
Assay type: in vivo, rat
assay context: rats, daily dose of 600 mg/kg oral; untreated controls = 100%
# maps each entry to its % control CHO (cholesterol)

[
  {
    "compound": "CCCCCCCC/C=C\\CCCCCCC(O)C(=O)[O-].[Na+] (stereo not shown)",
    "% control CHO (cholesterol) [% control]": 51
  },
  {
    "compound": "CCCCCCCC/C=C\\CCCCCCC(O)C(=O)O.N (stereo not shown)",
    "% control CHO (cholesterol) [% control]": 59
  },
  {
    "compound": "CCCCCCCC/C=C\\CCCCCCC(C(C)=O)C(=O)O (stereo not drawn) [ACOD, α-Acetyl-cis-Δ9-octadecenoic]",
    "% control CHO (cholesterol) [% control]": 59
  },
  {
    "compound": "CCCCCCCC/C=C\\CCCCCCC(O)C(=O)O (stereo not drawn) [OHOD, α-Hydroxy-cis-Δ9-octadecenoic]",
    "% control CHO (cholesterol) [% control]": 55
  },
  {
    "compound": "CCCCCCCC/C=C\\CCCCCCC(OC(C)=O)C(=O)OC (stereo not shown)",
    "% control CHO (cholesterol) [% control]": 86
  },
  {
    "compound": "CCCCCCCCC=CCCCCCCC(O)C(=O)OCC (stereo not shown)",
    "% control CHO (cholesterol) [% control]": 62
  },
  {
    "compound": "CCCCCCCC/C=C\\CCCCCCC(OC(C)=O)C(=O)OCC (stereo not shown)",
    "% control CHO (cholesterol) [% control]": 72
  },
  {
    "compound": "CCCCCCCC/C=C\\CCCCCCC(OC)C(=O)[O-].[Na+] (stereo not shown)",
    "% control CHO (cholesterol) [% control]": 63
  },
  {
    "compound": "CCCCCCCC/C=C\\CCCCCCC(O)C(=O)OC (stereo not shown)",
    "% control CHO (cholesterol) [% control]": 71
  },
  {
    "compound": "CCCCCCCC/C=C\\CCCCCCC(OP(=O)(OCC)OCC)C(=O)OCC (stereo not shown)",
    "% control CHO (cholesterol) [% control]": 69
  }
]
